# key: entry, value: GI50
- System: HOP-92
- experiment-notes: NCI tumour cell line growth inhibition, 48 h
The source made the active and inactive calls. Cut-off read from the data, not from the text of the source: active = GI50 up to about 1.1 µM and inactive = higher.

- molecule: "COc1cc2c(cc1OC)-c1cc3cc(OC)c(OC)cc3c(C)[n+]1CC2.O=C([O-])CS(=O)(=O)O"
  GI50: "95.9 µM (inactive)"

Asked: Which GI50 value belongs to Clc1cccc(-c2sc(-c3cccs3)cc2Cc2cccs2)c1 ?
Given back: > 10 µM (inactive)

Asked: Which GI50 value belongs to CC(C)C1=CC(=O)C(C)(C2C(O)CC3(C)C4CC=C5C(CCC(OC6OC(CO)C(O)C(O)C6OC6OC(C)C(O)C(O)C6O)C5(C)C)C4(C)C(=O)CC23C)O1 (stereo not drawn) ?
Given back: > 100 µM (inactive)

Asked: Which GI50 value belongs to O=C1Nc2ccccc2/C1=N/Nc1nc(-c2ccc(Cl)c(Cl)c2)cs1 ?
Given back: > 100 µM (inactive)

Asked: Which GI50 value belongs to COc1ccc(NC(=S)c2ccoc2C)cc1CC(=O)OC(C)C ?
Given back: 20.6 µM (inactive)

Asked: Which GI50 value belongs to COc1ccc(/N=N/C(=O)NC(CC(C)C)C(=O)NCC(=O)O)cc1 (stereo not drawn) ?
Given back: > 100 µM (inactive)

Asked: Which GI50 value belongs to C/C(CC(=O)Nc1cccc(Cl)c1C)=N\N=C(N)N ?
Given back: > 100 µM (inactive)

Asked: Which GI50 value belongs to OC[C@H]1O[C@@H](n2cnc3c(S)ncnc32)[C@H](O)[C@@H]1O ?
Given back: 1050 µM (inactive)

====

- System: OVCAR-3
- experiment-notes: NCI tumour cell line growth inhibition, 48 h
Activity calls are given as the source filed them. Rule as the data show it: active = GI50 up to about 1.1 µM and inactive = higher.
# key: entry, value: GI50

Observe how each entry below is paired with its result.
- compound: "O=C(O)CSc1cc(-c2ccccc2)nc2ccccc12"
  GI50: "21700 nM (inactive)"
- compound: "O=C1N[C@@H]2c3c(Br)sc(Br)c3C(=O)[C@@H]2N1"
  GI50: "2590 nM (inactive)"

Below: the item to evaluate.
Asked: Which GI50 value belongs to COc1cc(C2C3=C(COC3=O)Oc3cc4c(cc32)OCO4)ccc1OC(C)=O (stereo not drawn) ?
Given back: 244 nM (active)

====

- System: HCC 2998
- experiment-notes: NCI tumour cell line growth inhibition, 48 h
Activity calls are given as the source filed them. Rule as the data show it: active = GI50 up to about 1.1 µM and inactive = higher.
measured-quantity: GI50

Observe how each entry below is paired with its result.
- compound: "ON/N=C/c1cc2c(cc1Br)OCO2"
  GI50: "> 386 µM (inactive)"
- compound: "O=C1C(Cl)=C(Cl)C(=O)N1c1ccccc1Cl"
  GI50: "> 100 µM (inactive)"
- compound: "Cn1c(S)nnc1-c1csc(-c2ccc(Cl)cc2)n1"
  GI50: "> 100 µM (inactive)"
- compound: "N#Cc1nnn(C2CCCCC2)c1O"
  GI50: "> 100 µM (inactive)"
- compound: "CCOC(OCC)[C@@H]1C[C@@H]2N(O[C@H](OC3CCCC3(c3ccccc3)c3ccccc3)[C@H](OC(C)=O)[C@@]2(CC)Cc2ccc(OC)c(OC)c2)O1 (stereo partly specified)"
  GI50: "> 100 µM (inactive)"

Asked: Which GI50 value belongs to CC(C)c1cc(C(C)C)c(Cl)c(Cl)c1O.CC(C)c1cc(Cl)c(O)c(C(C)C)c1Cl ?
Given back: 28.8 µM (inactive)

Asked: Which GI50 value belongs to CN(C)CC1CCCC(CN(C)C)C1OC(=O)c1ccccc1 (stereo unspecified) ?
Given back: > 100 µM (inactive)

Asked: Which GI50 value belongs to COC(=O)CCC(=O)Nc1cc(C)ccc1C ?
Given back: > 100 µM (inactive)

Asked: Which GI50 value belongs to CSCSCC(CO)NC(=O)/C=C\c1c(C)[nH]c(=O)[nH]c1=O (stereo unspecified) ?
Given back: 5.57 µM (inactive)

Asked: Which GI50 value belongs to CCOc1cccc(/C=N/N=C2\C(=O)Nc3c(Cl)cc(Cl)cc32)c1O ?
Given back: 85.7 µM (inactive)

Asked: Which GI50 value belongs to C/N=c1\sc2c(n1C)C(=O)c1ccccc1C2=O ?
Given back: 7.73 µM (inactive)

====

- Tested on: LOX IMVI
- experiment-notes: NCI tumour cell line growth inhibition, 48 h
Activity calls are given as the source filed them. No stated cut-off is given here; in the data, active = GI50 up to about 1.1 µM and inactive = higher.
# key: entry, value: GI50

- compound: "NCP(=O)(O)OCC(=O)O"
  GI50: "> 100 µM (inactive)"
- compound: "O=C(O)C(Cc1c[nH]c2ccccc12)N1C(=O)c2ccccc2C1=O (stereo unspecified)"
  GI50: "> 100 µM (inactive)"
- compound: "COC1CC(OC2C(C)OC(OC3C(C)OC(OC4C(O)CC(O[C@H]5CC[C@@]6(C)C(=CC[C@]7(O)[C@@H]6C[C@@H](OC(C)=O)[C@@]6(C)[C@]7(O)CC[C@@]6(O)C(C)=O)C5)OC4C)CC3OC)CC2OC)OC(C)C1O (stereo partly specified)"
  GI50: "> 12.5 µM (inactive)"
- compound: "COc1ccc(O)c(/C(C)=N/NC(=S)N(C)C)c1"
  GI50: "4.48 µM (inactive)"
- compound: "COc1cc2oc(=O)ccc2cc1CC=C(C)C [SUBEROSIN]"
  GI50: "39.1 µM (inactive)"

Asked: Which GI50 value belongs to CN(C)S(=O)(=O)c1nc(Cl)c2nc[nH]c2n1 ?
Given back: > 100 µM (inactive)

====

- Test system: SN12C
- experiment-notes: NCI tumour cell line growth inhibition, 48 h
Calls of active or inactive are those of the source. No stated cut-off is given here; in the data, active = GI50 up to about 1.1 µM and inactive = higher.
# key: entry, value: GI50

Observe how each entry below is paired with its result.
- molecule: "O=C(Nc1ccc([N+](=O)[O-])cc1)C1C(=O)C(=O)N(c2ccc([N+](=O)[O-])cc2)C1=O (stereo not given)"
  GI50: "> 100 µM (inactive)"
- molecule: "NC1CC(=O)c2sc(I)cc21 (stereo not given)"
  GI50: "> 100 µM (inactive)"
- molecule: "CN(C(=O)C12C3C4C1C1C2C3C41C#N)C(C)(C)C (stereo not given)"
  GI50: "> 100 µM (inactive)"
- molecule: "C/C=C1\\C=C(OC)CN(CCc2c[nH]c3ccccc23)C1"
  GI50: "59.6 µM (inactive)"
- molecule: "COc1ccc(/C=C2\\CC3C4CC=C5C[C@@H](N6CCCC6)CC[C@]5(C)C4CC[C@]3(C)[C@H]2O)cc1OC (stereo not given in full)"
  GI50: "10.2 µM (inactive)"

Asked: Which GI50 value belongs to C=CCNC(=S)OCCCCCCCCCC ?
Given back: 17.7 µM (inactive)

Asked: Which GI50 value belongs to Cc1cc2c(=O)n(-c3ccc(F)cc3)c(C)nc2c(C(=O)O)c1C ?
Given back: > 100 µM (inactive)

Asked: Which GI50 value belongs to [N-]=[N+]=Nc1ccccc1C(=O)N1C(=O)c2ccccc2C(=O)N(C(=O)c2ccccc2N=[N+]=[N-])c2ccccc21 ?
Given back: 82.8 µM (inactive)

Asked: Which GI50 value belongs to CCOC(=O)C1C(c2cc(OC)c(O)c(OC)c2)c2cc3c(cc2OC1(C)O)OCO3 (stereo not given) ?
Given back: 88.5 µM (inactive)

Asked: Which GI50 value belongs to CN1CCc2c1nc(-c1ccccc1)c1c2N(C)CC1 ?
Given back: 62.7 µM (inactive)

====

- Tested on: RXF 393
- experiment-notes: NCI tumour cell line growth inhibition, 48 h
Active and inactive are the calls of the source. Rule as the data show it: active = GI50 up to about 1.1 µM and inactive = higher.
Use one of these outcomes when replying: True for active, False for inactive

Asked: // return assay outcome for O=C1C(Br)=CC2(C=C1Br)CCNC1=C2C2=NCCc3c[nH]c(c32)C1=O
Given back: True

Asked: // return assay outcome for COc1cccc(C(C#N)NNC(=O)c2c(Cl)c(Cl)c(Cl)c(Cl)c2-c2nc3cc(C(=O)c4ccccc4)ccc3[nH]2)c1O (stereo not given)
Given back: False

Asked: // return assay outcome for C[Si](C)(C)/C=C/CN1C(=O)CCC1O (stereo not given)
Given back: False

Asked: // return assay outcome for Cc1nc2ccccc2c(=O)n1NC(=O)c1ccc([N+](=O)[O-])cc1
Given back: False

Asked: // return assay outcome for C[C@H](NC(=O)CNC(=O)CCCCCC(=O)NCC(=O)N[C@@H](C)C(=O)OCc1ccccc1)C(=O)OCc1ccccc1
Given back: False

Asked: // return assay outcome for NC1CC(=O)c2sc(I)cc21 (stereo not given)
Given back: False

Asked: // return assay outcome for N/C(=N\O)N/N=C\c1ccccc1O
Given back: False

Asked: // return assay outcome for CCOC(OCC)[C@@H]1C[C@@H]2N(O[C@H](OC3CCCC3(c3ccccc3)c3ccccc3)[C@H](OC(C)=O)[C@@]2(CC)Cc2ccc(OC)c(OC)c2)O1 (stereo not given in full)
Given back: False

Asked: // return assay outcome for Cc1ccc2[nH]/c(=N/S(=O)(=O)c3cc(C)c(Cl)cc3S)[nH]c2c1
Given back: False

Asked: // return assay outcome for CN(C)CC1CCCC(CN(C)C)C1OC(=O)c1ccccc1 (stereo not given)
Given back: False

Asked: // return assay outcome for COc1cc2c(cc1O)C(Cc1ccc(OCc3ccccc3)c(OCc3ccccc3)c1)N(C(=O)NCCc1ccccc1)CC2 (stereo not given)
Given back: False

Asked: // return assay outcome for CCC1(O)CC(c2ccccc2)N(C)C(c2ccccc2)C1 (stereo not given)
Given back: False

Asked: // return assay outcome for Cc1cccc2c1CC1(C2)Cc2c(C)cccc2C1=O (stereo not given)
Given back: False

Asked: // return assay outcome for NC(=O)C(=O)N/N=C1/c2ccccc2CC1C1(O)C(=O)Nc2c(Cl)cc(Cl)cc21 (stereo not given)
Given back: False

Asked: // return assay outcome for COC(=O)[C@@H](O)[C@](O)(CCC(C)C)C(=O)O[C@@H]1C(OC)=C[C@]23CCCN2CCc2cc4c(cc2[C@H]13)OCO4
Given back: True

Asked: // return assay outcome for CCC(=O)N(c1ccccc1)C(C)CN1CCC(O)(c2cccc(C(F)(F)F)c2)CC1 (stereo not given)
Given back: False

Asked: // return assay outcome for Cc1cc2c(=O)n(-c3ccc(F)cc3)c(C)nc2c(C(=O)O)c1C
Given back: False

Asked: // return assay outcome for C/C(=N\NS(=O)(=O)c1ccc(C)cc1)C(CN(C)C)C(c1ccccc1)c1c(O)c2ccccc2oc1=O (stereo not given)
Given back: False

Asked: // return assay outcome for Nn1c(S)nnc1N/N=C1/C(=O)Nc2c(Cl)cc(Cl)cc21
Given back: False

Asked: // return assay outcome for Cc1cc2cccc(Cl)c2nc1C(=O)c1ccccc1
Given back: False

Asked: // return assay outcome for N#CCCN(CCC#N)c1ccc(/C=C2\N=C(c3ccccc3)N(c3ccccc3)C2=O)cc1
Given back: False

Asked: // return assay outcome for O=C(Nc1ccc([N+](=O)[O-])cc1)C1C(=O)C(=O)N(c2ccc([N+](=O)[O-])cc2)C1=O (stereo not given)
Given back: False

Asked: // return assay outcome for COC(=O)[C@H](Cc1c[nH]c2ccccc12)NP(=O)(O)OC[C@H]1O[C@@H](n2cc(C)c(=O)[nH]c2=O)C[C@@H]1N=[N+]=[N-]
Given back: False

Asked: // return assay outcome for CC1OC(n2ccc(=O)[nH]c2=O)C=C(OC(=O)c2ccccc2)C1=O (stereo not given)
Given back: False

Asked: // return assay outcome for CNc1ncnc(Sc2nc(N)nc3[nH]cnc23)c1[N+](=O)[O-]
Given back: True
